experiment: Solubility of compound (I) in selected solvent systems by UPLC; type: physicochemical; conditions: aqueous with cosolvent or surfactant or cyclodextrin, thermodynamic from solid; 30% HP-β-CD plus 2% CA, 25° C.
Observable: solubility (mg/mL)
Quick note: give the figure in mg/mL, leave out the unit.

Enquiry: Value lookup for solubility; key = CC1(C)[C@H](NC(=O)/C(=N\O[C@@H](COc2ccc(C(=N)N[C@@H]3CCCNC3)cc2)C(=O)O)c2csc(N)n2)C(=O)N1OS(=O)(=O)O
Return: 16.2

====

assay: pH-dependent solubility of compound (I); type: physicochemical; settings: pure water, 25 °C, aqueous buffer; pH 4.0
Observable: solubility

Enquiry: Value lookup for solubility; key = CC1(C)[C@H](NC(=O)/C(=N\O[C@@H](COc2ccc(C(=N)N[C@@H]3CCCNC3)cc2)C(=O)O)c2csc(N)n2)C(=O)N1OS(=O)(=O)O
Return: 10000 µg/mL

====

assay: Fraction bound to plasma protein in mice; format: in vitro ADME; settings: mouse, read-out: Fraction bound to plasma protein (fp) (converted)
Observable: fraction unbound
Lab note: write the figure by itself, no unit.

Enquiry: Value lookup for fraction unbound; key = CC1(C)[C@H](NC(=O)/C(=N\O[C@@H](COc2ccc(C(=N)N[C@@H]3CCCNC3)cc2)C(=O)O)c2csc(N)n2)C(=O)N1OS(=O)(=O)O
Return: 0.779
